system: HL-60(TB) leukemia; experiment: NCI-60 one-dose screen, 48 h; conditions: 10 µM unless noted
This is part of a sample that, as a whole, favours compounds with a hit. Of some 83,000 tested, about 20% had one in any assay. Calls of active or inactive are those of the source. Rule for the calls: active = growth percent below 10; inactive = the rest.
The reply should name one outcome from active, inactive

O=C(Nc1ccc(C2=NCCCN2)cc1)Nc1ccc(C2=NCCCN2)cc1 ... inactive
CCOc1ccc(/C=N/Nc2cc(C)nc3ccc(Cl)cc23)cc1 ... active
Cc1cc(C)c2c(-c3nnc(N)s3)cc(=O)oc2c1 ... inactive
OCCNCCCOc1ccc2ncnc(Nc3ccc(Oc4cccc(C(F)(F)F)c4)c(Cl)c3)c2c1 ... active

Moving on to the next compound.
What did this assay record as the result for `CC(=O)OC[C@]1(C)C=C2C(=O)[C@](C)(O)C3(CC3)C(C)=C2[C@H]1OC(C)=O` ? inactive
